pIC50: −log10 of the molar value.
Listing of pIC50 toward Tyrosine-protein phosphatase non-receptor type 2 (Homo sapiens, UniProt P17706), each taken from a published source.

Below, 3 compounds whose answers are already recorded.
CN1CCC(Nc2cccc(-c3ccc(O)c(N4CC(=O)NS4(=O)=O)c3F)c2)CC1 = ≥ 6.00
CS(=O)(=O)c1ccc(COc2cc(-c3nc[nH]n3)cc3c(Br)c(C(F)(F)P(=O)(O)O)sc23)cc1 = > 8.60
NC(=O)c1cc(OCc2ccc(C(F)(F)F)cc2C(F)(F)F)c2sc(C(F)(F)P(=O)(O)O)c(Br)c2c1 = 6.94

Task: // lookup pIC50 | system=Tyrosine-protein phosphatase non-receptor type 2 (Homo sapiens, UniProt P17706) | key= O=C1CN(c2c(O)cc3ccc(OCC4CCOC4)nc3c2F)S(=O)(=O)N1 (stereo not shown)
Result: ≥ 6.00

Task: Requested read-out pIC50, target or system Tyrosine-protein phosphatase non-receptor type 2 (Homo sapiens, UniProt P17706), entry "CC(C)(C)CCOc1ccc2cc(O)c(N3CC(=O)NS3(=O)=O)c(F)c2n1"
Result: ≥ 6.00

Task: State its pIC50 on Tyrosine-protein phosphatase non-receptor type 2 (Homo sapiens, UniProt P17706): "N#Cc1ccc2cc(C(F)(F)P(=O)(O)O)sc2c1Br"
Result: 4.58

====

pIC50: −log10 of the molar value.
Collected pIC50 for Tyrosine-protein phosphatase non-receptor type 2 (Homo sapiens, UniProt P17706) across several studies; molecules listed below.

Cn1c(=O)c(NCCCC#N)cc2cc(N3CC(=O)NS3(=O)=O)c(O)cc21 = ≥ 6.00

Task: Sample "CC(=O)N1CCC[C@H](NCc2cc(O)c(N3CC(=O)NS3(=O)=O)c(F)c2)C1" — what was its pIC50?
Result: 7.60

Task: Which pIC50 value belongs to "O=C(NCCc1c[nH]c2ccccc12)c1ccc2sc(C(F)(F)P(=O)(O)O)c(Br)c2c1" ?
Result: 5.71

Task: // returns reported pIC50 for input "NC(=O)c1cc(OCc2ccc(-c3ccccc3)cc2)c2sc(C(F)(F)P(=O)(O)O)c(Br)c2c1"
Result: 8.60

====

From various publications: IC50 for Tyrosine-protein phosphatase non-receptor type 2 (Homo sapiens).

# annotated cases, reported IC50 shown
O=C1CN(c2c(O)ccc(-c3cnn(C4CCC(O)CC4)c3)c2F)S(=O)(=O)N1 (stereo not drawn) = ≤ 1000 nM
CC(C)(O)CCCOc1cc(C(N)=O)cc2c(C(F)(F)F)c(C(F)(F)P(=O)(O)O)sc12 = 14.1 nM
O=C1CN(c2c(O)ccc(-c3cnn(CC4(O)CCC4)c3)c2F)S(=O)(=O)N1 = ≤ 1000 nM
O=P(O)(O)C(F)(F)c1sc2c(OCC3CC3(F)F)cc(-c3cnn[nH]3)cc2c1Br (stereo not drawn) = 3.53 nM
O=C1CN(c2c(O)ccc(-c3cc(N4CC(F)(F)C4)n[nH]3)c2F)S(=O)(=O)N1 = ≤ 1000 nM
NC(=O)c1cc(C#CCCS(N)(=O)=O)c2sc(C(F)(F)P(=O)(O)O)c(Br)c2c1 = 68.5 nM
CS(=O)(=O)CCCOc1cc(C(N)=O)cc2cc(C(F)(F)P(=O)(O)O)sc12 = 9580 nM
CC1(c2ccc(COc3cc(C(N)=O)cc4c(Br)c(C(F)(F)P(=O)(O)O)sc34)cc2)CC1 = 20.5 nM
Cn1nc(-c2ccc(O)c(N3CC(=O)NS3(=O)=O)c2F)cc1N = ≤ 1000 nM
CCN1CCC(CNc2cc3cc(N4CC(=O)NS4(=O)=O)c(O)cc3n(C)c2=O)CC1 = ≤ 1000 nM

Task: Recorded IC50 for "CC(C)CCN1CCC=C(c2ccc(O)c(N3CC(=O)NS3(=O)=O)c2F)C1" with Tyrosine-protein phosphatase non-receptor type 2 (Homo sapiens), please?
Result: ≤ 1000 nM

Task: Can you look up IC50 on Tyrosine-protein phosphatase non-receptor type 2 (Homo sapiens) for "O=C1CN(c2c(O)ccc(-c3cnn(Cc4ccc(C(F)(F)F)cc4)c3)c2F)S(=O)(=O)N1" ?
Result: ≤ 1000 nM

Task: Param readout= IC50; system= Tyrosine-protein phosphatase non-receptor type 2 (Homo sapiens); entry= "CN1CCC(c2ccc(O)c(N3CC(=O)NS3(=O)=O)c2F)CC1" ; returns value.
Result: 4470 nM

Task: Kindly state the measured IC50 obtained for "O=C(N[C@H]1CC[C@H](C(F)(F)F)CC1)c1ccc2sc(C(F)(F)P(=O)(O)O)c(Br)c2c1" with Tyrosine-protein phosphatase non-receptor type 2 (Homo sapiens).
Result: 6820 nM

Task: Write down the reported IC50 of "O=C(NCCC1CCCCC1)c1ccc2sc(C(F)(F)P(=O)(O)O)c(Br)c2c1" , test system: Tyrosine-protein phosphatase non-receptor type 2 (Homo sapiens).
Result: 4110 nM

Task: Give IC50 (Tyrosine-protein phosphatase non-receptor type 2 (Homo sapiens)) of the following compound: "O=C1CN(c2c(O)ccc(C3=CCN(C4CC4)C3)c2F)S(=O)(=O)N1"
Result: ≤ 1000 nM

Task: Observed IC50 on Tyrosine-protein phosphatase non-receptor type 2 (Homo sapiens) for "CC(C)CCn1cc(-c2ccc(O)c(N3CC(=O)NS3(=O)=O)c2F)nn1" , please.
Result: ≤ 1000 nM

Task: # returns recorded IC50 (system: Tyrosine-protein phosphatase non-receptor type 2 (Homo sapiens)) for "O=C1CN(c2c(O)ccc(-c3cc(CCCC(F)(F)F)n[nH]3)c2F)S(=O)(=O)N1"
Result: ≤ 1000 nM

Task: Lab note: need IC50 with Tyrosine-protein phosphatase non-receptor type 2 (Homo sapiens) for entry "O=C1CN(c2c(O)ccc(-c3cc(C(F)F)n[nH]3)c2F)S(=O)(=O)N1" , please look it up.
Result: ≤ 1000 nM

Task: Tell me reported IC50 for "CN(C)c1cc(-c2ccc(O)c(N3CC(=O)NS3(=O)=O)c2F)[nH]n1" , tested with Tyrosine-protein phosphatase non-receptor type 2 (Homo sapiens).
Result: ≤ 1000 nM

Task: Item "N#Cc1ccccc1-n1cnc(-c2ccc(O)c(N3CC(=O)NS3(=O)=O)c2F)c1" with Tyrosine-protein phosphatase non-receptor type 2 (Homo sapiens) - IC50?
Result: ≤ 1000 nM

Task: Item: "O=P(O)(O)C(F)(F)c1sc2c(OCCCC(F)(F)F)cc(O)cc2c1Br" Test system: Tyrosine-protein phosphatase non-receptor type 2 (Homo sapiens) Read-out: IC50 Value: ?
Result: 345 nM

Task: Param readout= IC50; system= Tyrosine-protein phosphatase non-receptor type 2 (Homo sapiens); entry= "C[C@@H](NC(=O)c1ccc2sc(C(F)(F)P(=O)(O)O)c(C#N)c2c1)c1cccnn1" ; returns value.
Result: 648 nM

Task: Give recorded IC50 with Tyrosine-protein phosphatase non-receptor type 2 (Homo sapiens) for the following compound: "C=Cc1cc(-c2ccc(O)c(N3CC(=O)NS3(=O)=O)c2F)[nH]n1"
Result: ≤ 1000 nM

Task: IC50 of "O=C1CN(c2c(O)ccc(-c3ccc4[nH]ncc4c3)c2F)S(=O)(=O)N1" on Tyrosine-protein phosphatase non-receptor type 2 (Homo sapiens)?
Result: ≤ 1000 nM

Task: Recall the recorded IC50 for "CCN1CC(Nc2cc3cc(N4CC(=O)NS4(=O)=O)c(O)cc3n(C)c2=O)C1" with Tyrosine-protein phosphatase non-receptor type 2 (Homo sapiens) and state it.
Result: 1000 to 10000 nM

Task: Form entry - test system: Tyrosine-protein phosphatase non-receptor type 2 (Homo sapiens); read-out: IC50; compound: CN(C)C1CCN(c2cc(-c3ccc(O)c(N4CC(=O)NS4(=O)=O)c3F)[nH]n2)C1 (stereo not drawn)
Result: ≤ 1000 nM

Task: What value of IC50 on Tyrosine-protein phosphatase non-receptor type 2 (Homo sapiens) does CC1(N)CCN(c2cc(-c3ccc(O)c(N4CC(=O)NS4(=O)=O)c3F)[nH]n2)C1 (stereo not drawn) have?
Result: ≤ 1000 nM

Task: Give IC50 (Tyrosine-protein phosphatase non-receptor type 2 (Homo sapiens)) of the following compound: "N#CCCCNC(=O)c1ccc2sc(C(F)(F)P(=O)(O)O)c(Br)c2c1"
Result: 5860 nM

Task: Param readout = IC50; param system = Tyrosine-protein phosphatase non-receptor type 2 (Homo sapiens); param query = "CNC(=O)c1cc(OCCCS(N)(=O)=O)c2sc(C(F)(F)P(=O)(O)O)c(C#N)c2c1" ; response: value
Result: 3.63 nM

====

pIC50: −log10 of the molar value.
Compiled notes: published pIC50 values involving Tyrosine-protein phosphatase non-receptor type 2 (Homo sapiens).

Task: Request the reported pIC50 associated with "CS(=O)(=O)CCCOc1cc(-c2cc(=O)cc[nH]2)cc2c(Br)c(C(F)(F)P(=O)(O)O)sc12"
Result: 8.60

Task: Given the compound "O=C1CN(c2cc3nc(OCCN4CCC4)ccc3cc2O)S(=O)(=O)N1" , what is its reported pIC50?
Result: < 5.00

Task: Entry "Cc1cn(-c2ccc(O)c(N3CC(=O)NS3(=O)=O)c2F)nc1O" : reported pIC50 = ?
Result: ≥ 6.00

Task: Requested field: pIC50. Item: "CCN1CCC(Nc2cc3cc(N4CC(=O)NS4(=O)=O)c(O)cc3n(C)c2=O)CC1"
Result: 5.00 to 6.00
